Ref: a melting point compilation (Tetko et al.; mined from patent text by program, amines drawn as free bases though some values may be those of a salt)

assay-readout: melting point

Examples with answers:
compound: CCCCN1CCC(CNC(=O)c2ccc(N)n3cc(CC)nc23)CC1
melting point: 139 to 145 °C

compound: CCC(CC)N(OCc1ccccc1)C(=O)Nc1ccccc1
melting point: 45 to 45.6 °C

compound: Cc1ccc(-c2ccc3c(c2)C=C(C(=O)Nc2ccc(CN(C)C4CCOCC4)cc2)CC(C)O3)cc1 (stereo not given)
melting point: 170 to 171 °C

Query (compound): CC(NC(=O)OC(C)(C)C)C1CCN(c2c(F)c(N)c3c(=O)[nH]c(=O)n4c3c2OCC4C)C1 (stereo not given) ; field requested: melting point 136 to 138 °C

Query (compound): COc1ccc2c(c1)CCN(CCc1ccc(NC(=O)c3cccc4c(=O)c5cccc(OC)c5[nH]c34)cc1)C2 ; field requested: melting point 260 °C

Query (compound): COC(=O)C(=O)Nc1ccc(-c2ccccc2S(=O)(=O)NC(C)(C)C)cc1 ; field requested: melting point 132 °C

Query (compound): COc1ccc(C)cc1NC(=O)Nc1ccc(N2CCC(C(=O)Nc3ncccc3C)CC2)cc1 ; field requested: melting point 200 to 203 °C

Query (compound): CCCCOc1ccc(NC(=O)c2ccccc2C(c2ccc(O)cc2)c2ccc(O)cc2)cc1 ; field requested: melting point 110 to 112 °C
